assay-system: UniProt:P00735
protocol-description: Concentration at which the clotting time was prolonged by twice the control was determined using topical bovine thrombin
Assay type: functional
setup-conditions: read-out: I50
Would you kindly list IC50 for each of these compounds?
Write the number in µM without appending the unit.

Exam item: What does the record list as IC50 for CN(C)c1cccc2c(S(=O)(=O)NC(CCCN=C(N)N)C(=O)OC3CCCCC3)cccc12 (centres undefined) ?
Marked response: 60

Exam item: Record: C/C=C/COC(=O)C(CCCNC(=N)N)NS(=O)(=O)c1cccc2c(N(C)C)cccc12 (centres undefined)
Marked response: 2

Exam item: Record: CCC(C)OC(=O)C(CCCNC(=N)N)NS(=O)(=O)c1cccc2c(N(C)C)cccc12 (centres undefined)
Marked response: 2000

Exam item: Record: COC(=O)C(CCCNC(=N)N)NS(=O)(=O)c1ccc(OC)cc1 (centres undefined)
Marked response: 100
